Biological target: FGFR1 (UniProt P11362)
Sequence (P11362 whole entry, looked up): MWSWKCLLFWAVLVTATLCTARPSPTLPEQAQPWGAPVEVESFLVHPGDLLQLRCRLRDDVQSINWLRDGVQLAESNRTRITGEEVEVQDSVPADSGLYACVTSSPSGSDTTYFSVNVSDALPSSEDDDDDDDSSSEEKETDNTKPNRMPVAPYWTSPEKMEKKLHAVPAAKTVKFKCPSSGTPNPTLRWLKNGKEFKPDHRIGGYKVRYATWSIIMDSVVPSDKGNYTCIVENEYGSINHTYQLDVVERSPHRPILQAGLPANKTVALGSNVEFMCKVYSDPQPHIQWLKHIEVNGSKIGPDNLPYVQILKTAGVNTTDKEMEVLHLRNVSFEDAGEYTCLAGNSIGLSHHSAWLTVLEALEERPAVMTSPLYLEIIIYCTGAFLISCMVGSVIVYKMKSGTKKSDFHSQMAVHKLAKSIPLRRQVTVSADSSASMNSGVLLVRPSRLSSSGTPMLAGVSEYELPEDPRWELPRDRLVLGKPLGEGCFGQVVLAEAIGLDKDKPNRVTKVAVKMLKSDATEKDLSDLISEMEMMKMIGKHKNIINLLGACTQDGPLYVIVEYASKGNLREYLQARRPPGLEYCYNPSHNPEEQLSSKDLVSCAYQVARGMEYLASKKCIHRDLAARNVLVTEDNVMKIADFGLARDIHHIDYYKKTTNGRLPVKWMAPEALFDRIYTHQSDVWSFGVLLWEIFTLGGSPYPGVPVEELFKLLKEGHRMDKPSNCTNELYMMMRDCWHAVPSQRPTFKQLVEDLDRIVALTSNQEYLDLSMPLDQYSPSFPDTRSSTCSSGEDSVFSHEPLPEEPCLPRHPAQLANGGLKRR
Assay: phosphorylation enrichment, bacterial display (enrichment ratio); higher = better substrate or ligand; peptides without Tyr show the background;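 note: 11-residue human phosphosite peptides and single-mutation variants displayed on the E. coli surface, counted by deep sequencing, each peptide's frequency after selection divided by its frequency in the unselected input library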;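 note: frequency after pTyr selection over input frequency; kinase dosed for 20-30% of maximal phosphorylation in three min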
RECORDED METRIC: phosphorylation enrichment

The following sequences have reported results that may help.
INSERT INTO results (sequence_chain, data_value) VALUES
  ('RRIHNYRGHLW [VHL_Y112_S111N]', 0.433),
  ('IVFTSYVLTIL [TAS2R16_Y239_F240V]', 0.71),
  ('RELSWYRGRRP [HESX1_Y106]', 0.53),
  ('AFSTVYKGLWI [EGFR_Y727_G724S]', 0.504),
  ('VDLSKCITTIA [FAS_Y232_Y232C]', 0.461);

GET /values?readout=phosphorylation enrichment&item= FRPPYYHRNCM [HGD_Y334] 0.513

// query: EILTQYEAMAS [GFAP_Y242_R239L] 0.485

Then what about the sequence QMVGMYASFYM [AVPR2_Y124_S127F] ? 0.45

Subsequent entry: FGVTLYPNSRE [MEP1A_Y472] 0.556

Follow-up entry: LLREWYMIISR [HUWE1_Y4066] 0.708

Also PLQSEYSSIST [ITGB4_Y1760_T1764S] , if possible. 0.944

How about this sequence: RQGKDYIGAIP [KDR_Y951_V952I] 0.596

Can you handle WCKPPYFSCAV [MMS22L_Y28] next? 0.512

###

Molecular target: MERTK (UniProt Q12866)
Sequence (Q12866 whole entry, looked up): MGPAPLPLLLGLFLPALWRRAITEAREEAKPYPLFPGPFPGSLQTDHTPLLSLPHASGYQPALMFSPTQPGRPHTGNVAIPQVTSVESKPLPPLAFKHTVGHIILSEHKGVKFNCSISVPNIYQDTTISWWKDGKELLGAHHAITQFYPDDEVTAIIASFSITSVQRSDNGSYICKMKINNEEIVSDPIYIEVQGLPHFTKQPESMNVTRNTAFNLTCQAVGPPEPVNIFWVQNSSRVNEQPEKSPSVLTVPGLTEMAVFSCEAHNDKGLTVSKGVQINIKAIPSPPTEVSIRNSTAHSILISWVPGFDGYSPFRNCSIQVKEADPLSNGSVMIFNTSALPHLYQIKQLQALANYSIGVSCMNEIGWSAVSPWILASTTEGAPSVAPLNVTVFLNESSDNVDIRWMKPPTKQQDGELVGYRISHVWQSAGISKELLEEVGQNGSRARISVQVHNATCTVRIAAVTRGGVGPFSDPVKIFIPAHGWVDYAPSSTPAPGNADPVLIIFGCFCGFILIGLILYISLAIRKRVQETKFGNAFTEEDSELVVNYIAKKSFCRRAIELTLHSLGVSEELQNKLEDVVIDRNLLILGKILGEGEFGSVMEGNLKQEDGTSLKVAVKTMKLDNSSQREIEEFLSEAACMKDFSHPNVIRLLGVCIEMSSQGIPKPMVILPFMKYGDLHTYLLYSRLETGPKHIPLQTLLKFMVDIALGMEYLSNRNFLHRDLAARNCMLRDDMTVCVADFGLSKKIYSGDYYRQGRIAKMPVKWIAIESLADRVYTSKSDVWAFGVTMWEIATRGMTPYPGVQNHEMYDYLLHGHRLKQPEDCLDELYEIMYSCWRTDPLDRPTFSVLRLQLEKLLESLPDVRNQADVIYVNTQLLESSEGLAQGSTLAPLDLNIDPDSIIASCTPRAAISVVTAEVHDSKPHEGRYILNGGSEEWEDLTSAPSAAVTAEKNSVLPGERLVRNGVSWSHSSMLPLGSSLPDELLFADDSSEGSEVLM
Experiment: phosphorylation enrichment, bacterial display (enrichment ratio); higher = better substrate or ligand; peptides without Tyr show the background
Measured phosphorylation enrichment determines class: 1: < 0.4; 2: ≥ 0.4 and < 0.6; 3: ≥ 0.6

As a guide, the following entries are already answered.
INSERT INTO assay_data (sequence_chain, group_label) VALUES
  ('NFADPYRQLPF [CTNND2_Y503_Q507P_YF]', 2),
  ('GIATGYLVLKE [DNMT3B_Y588]', 1),
  ('KSEFAYEIFDK [MYOM2_Y1024_L1022F]', 3),
  ('FMLFQYLKQIE [RPAP3_Y569_D564Y_YF]', 2),
  ('KVITDYYVDMK [MPP4_Y566]', 2),
  ('EREYKYDAHNY [OAT_Y50_G51D]', 2);

Which phosphorylation enrichment category applies to TLDTDYQMTKR [ADA_Y308] here? 1

What do you get for LARHMYDKEFF [MET_Y1230_D1228H_YF] ? 2

###

Biological target: Fyn (UniProt P06241)
Sequence (P06241 whole entry, looked up): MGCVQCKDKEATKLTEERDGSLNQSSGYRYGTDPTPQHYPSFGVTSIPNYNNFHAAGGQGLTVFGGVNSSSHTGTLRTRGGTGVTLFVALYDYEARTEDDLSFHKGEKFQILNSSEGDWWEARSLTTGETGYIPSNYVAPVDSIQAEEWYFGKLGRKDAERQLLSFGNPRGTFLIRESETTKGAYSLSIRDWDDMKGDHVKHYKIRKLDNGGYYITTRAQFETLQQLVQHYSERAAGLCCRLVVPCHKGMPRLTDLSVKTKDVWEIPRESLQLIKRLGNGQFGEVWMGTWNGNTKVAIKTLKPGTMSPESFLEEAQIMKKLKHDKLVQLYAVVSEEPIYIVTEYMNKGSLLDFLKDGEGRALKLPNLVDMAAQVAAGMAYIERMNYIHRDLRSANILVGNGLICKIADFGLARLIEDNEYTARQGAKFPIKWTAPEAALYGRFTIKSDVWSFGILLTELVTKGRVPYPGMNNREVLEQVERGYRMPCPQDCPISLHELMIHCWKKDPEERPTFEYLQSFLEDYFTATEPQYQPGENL
Assay: phosphorylation enrichment, bacterial display (enrichment ratio); higher = better substrate or ligand; peptides without Tyr show the background
Recorded phosphorylation enrichment by entry
Provide a numeric answer; units are not to be included.

These solved cases illustrate the format of a correct answer.
INSERT INTO assay_data (sequence_chain, target_desc, data_value) VALUES
  ('AALRLYHVSDS [VIL1_Y256_K254R]', 'Fyn (UniProt P06241)', 0.579),
  ('GVIRHSVVCST [BTK_Y334_Y334S]', 'Fyn (UniProt P06241)', 0.42),
  ('DLDTDYGSGFP [RNASEH2A_Y206_YF]', 'Fyn (UniProt P06241)', 0.45),
  ('RVSSVYTRSTG [CCR5_Y339_A335V]', 'Fyn (UniProt P06241)', 1.1);

Can you share its phosphorylation enrichment? I mean this sequence: FRPPYYHRNCM [HGD_Y334] 0.418

Let us now turn to TQTPPYVKKHR [LARP1B_Y457_P462R] 0.531

Also need NHFKIYNPCAE [PTEN_Y68_L70P_YF] , thanks. 0.564
